target: T1, CD137 antigen (Octet antigen binding assay) (UniProt Q07011 24-186, limits assumed); assay: BLI, Octet Red 96, antibody on anti-human Fc (AHC) biosensors, 1:1 model
T1 construct: also called 4-1BB; TNFRSF9
observed property: pKd
Answers are plain numbers, as −log10 of the molar value.

Guide cases for pKd, answers given:
binder | pKd
LYV390 (30C11-IgG4) (antibody, V domains shown, Chimeric antibody, human IgG4 S228P / human kappa; also called 30C11 in hG4SP / human kappa) VH: QIQLVQSGPELKKPGESVKISCKASGYTFTDYAMHWVKQAPGKALKWMGLINTYTGKPTYVDDLKGRFVFSLEASASTAKLQISNLKNEDTAIYFCARYYHDGTYYGWFANWGQGTLVTVSS VL: DTVLTQSPALAVSPGERVTVSCGATESVSTALNWYQQKPGQQPRLLIYGASNLESGVPARFSGSGSGTDFTLSIDPVEADDTATYFCQQTWNDPLTFGSGTKLEIKR | 8.28
LYV402 (26B3-IgG4) (antibody, V domains shown, Chimeric antibody, human IgG4 S228P / human kappa; also called 26B3b in hG4SP / human kappa) VH: EVKLLESGGGLVQPGGSLKLSCAASGFDFSRYWMSWVRQAPGKGLEWIGEINPDSNPINYTPSLKDKFIISRDNAKNTLYLQMSKVRSEDTALYYCARDGSSSRYFDVWGAGTTVTVSS VL: DIVMTQSPATLSVTPGDRVSLSCRASQSISDYLHWYQQKSHESPRLLIKYVSQSISGIPSRFSGSGSGSDFTLSINSVEPEDVGVYYCQNGHSFPPTFGGGTKLEIKR | 8.68

Noted for LYV372 (23D2-IgG4) (antibody, V domains shown, Chimeric antibody, human IgG4 S228P / human kappa; also called 23D2 in human IgG4S; 23D2b in human Kappa) VH: QVQLQQSGAELVRPGSSVKISCKASGYAFSIYWMNWVKQRPGQGLEWIGQIYPGDGYTNYNGKFKGKATLTADKSSSTAYMQLSSLTSEDSAVYFCARGQLGLDGYWGQGTTLTVSS VL: QIVLTQSPTIMSASPGEKVTMTCSASSSVSYIYWYQQKPGSSPRLLIYDTSNLASGVPVRFSGSGSGTSYSLTISRMEAEDAATYYCQQWNIYPYTFGGGTKLEIKR : its pKd reads 8.24
